Target: T1, T Cell Receptor Beta Constant 2 (TRBC2) (human, UniProt A0A5B9 1-144, limits assumed)
T1 construct: ELISA antigen; also called TCR beta constant region 2
T1 sequence (A0A5B9 1-144 limits assumed): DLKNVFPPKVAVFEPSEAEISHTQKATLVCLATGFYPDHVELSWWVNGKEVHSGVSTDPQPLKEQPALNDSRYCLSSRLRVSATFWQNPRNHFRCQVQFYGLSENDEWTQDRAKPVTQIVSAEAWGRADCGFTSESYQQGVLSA
Test: ELISA
experimentalReadout: binding result

Jovi Hum 26 (antibody, V domains shown, also called H-AF 12) VH: QVQLVQSGAEVKKPGASVKMSCKASGYTFTGYVMHWVRQAPGQGLEWMGFINPYNDDIQSNERFRGRVTMTSDKSISTAYMELSRLRSDDTAVYYCARGAGYNFDGAYRFFDFWGQGTMVTVSS VL: DIVMTQSPLSLPVTPGEPASISCRSSQRLVHSNGNTYLHWYLQKPGQSPRLLIYRVSNRFPGVPDRFSGSGSGTDFTLKISRVEAEDVGVYYCSQSTHVPYTFGQGTKLEIK; no binding
Jovi Hum 17 (antibody, V domains shown, also called H-AF 3) VH: QVQLVQSGAEVKKPGASVKVSCKASGYTFTGYVMHWVRQAPGQGLEWMGFINPYNDDIQSNERFRGRVTMTSDTSISTAYMELSRLRSDDTAVYYCARGAGYNFDGAYRFFDFWGQGTMVTVSS VL: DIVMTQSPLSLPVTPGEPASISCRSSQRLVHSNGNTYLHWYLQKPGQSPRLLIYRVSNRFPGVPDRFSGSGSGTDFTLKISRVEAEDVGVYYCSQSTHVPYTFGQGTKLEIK; no binding
Jovi Hum 18 (antibody, V domains shown, also called H-AF 4) VH: QVQLVQSGAEVKKPGASVKVSCKASGYTFTGYVMHWVRQAPGQGLEWMGFINPYNDDIQSNERFRGRVTMTSDKSISTAYMELSRLRSDDTAVYYCARGAGYNFDGAYRFFDFWGQGTMVTVSS VL: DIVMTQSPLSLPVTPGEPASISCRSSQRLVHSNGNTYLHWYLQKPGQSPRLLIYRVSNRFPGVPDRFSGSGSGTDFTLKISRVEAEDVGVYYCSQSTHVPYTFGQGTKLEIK; no binding
